Consider molecules characterized by their pIC50 with Human HPK1, catalytic domain (Homo sapiens, UniProt Q92918).
Sequence (Q92918 1-346): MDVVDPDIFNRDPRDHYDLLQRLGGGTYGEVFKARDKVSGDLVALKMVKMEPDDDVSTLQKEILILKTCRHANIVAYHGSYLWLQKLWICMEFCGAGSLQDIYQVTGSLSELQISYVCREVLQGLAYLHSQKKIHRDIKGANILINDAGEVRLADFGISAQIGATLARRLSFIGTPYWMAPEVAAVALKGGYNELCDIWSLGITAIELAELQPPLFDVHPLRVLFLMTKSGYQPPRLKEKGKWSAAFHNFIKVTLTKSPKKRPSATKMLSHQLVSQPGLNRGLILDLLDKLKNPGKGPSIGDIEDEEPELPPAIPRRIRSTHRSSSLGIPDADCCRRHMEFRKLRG
Please keep in mind that pIC50 is minus log10 of the molar concentration; only the number is needed.

1. Cc1c(-c2cc3nc(Nc4ccc(N5CCOC5=O)cc4)ncc3c(N)c2F)cnc2c1NCCO2 | 10.29
2. Cc1c(-c2c(F)c(N)c3cnc(Nc4ccc(S(C)(=O)=O)cc4)nc3c2Cl)cnc2c1NCCO2 | 10.02

**Q:** Retrieve pIC50 on Human HPK1, catalytic domain (Homo sapiens, UniProt Q92918); query `Cc1c(-c2c(F)c(N)c3cnc(Nc4ccc(CS(=O)(=O)C5CC5)cc4)nc3c2Cl)cnc2c1NCCO2`
**A:** 7.00

**Q:** Retrieve pIC50 on Human HPK1, catalytic domain (Homo sapiens, UniProt Q92918); query Cc1c(-c2c(F)c(N)c3cnc(Nc4ccc(CC(C)(C)O)cc4)nc3c2Cl)cnc2c1NCCO2 [Compound 2-167]
**A:** 7.15

**Q:** Retrieve pIC50 on Human HPK1, catalytic domain (Homo sapiens, UniProt Q92918); query `C[C@H]1COC(=O)N1c1cc(N)c2cnc(Nc3ccc(S(C)(=O)=O)cc3)nc2c1`
**A:** 10.00

**Q:** Retrieve pIC50 on Human HPK1, catalytic domain (Homo sapiens, UniProt Q92918); query `Cc1c(-c2c(F)c(N)c3cnc(Nc4cc5c(cc4F)CCN(C)C5)nc3c2Cl)cnc2c1NCCO2`
**A:** 10.06

**Q:** Retrieve pIC50 on Human HPK1, catalytic domain (Homo sapiens, UniProt Q92918); query `CN1Cc2cc(Nc3ncc4c(N)c(F)c(-c5cnc6c(c5Cl)NCCO6)cc4n3)ccc2C2(CC2)C1`
**A:** 10.15

**Q:** Retrieve pIC50 on Human HPK1, catalytic domain (Homo sapiens, UniProt Q92918); query `COc1cc2c(cc1Nc1ncc3ccc(-c4cccc5c4CCNC5)cc3n1)CN(C)CC2`
**A:** 7.04
